These measurements were taken from paper PMC7048242.

testDetails: in vivo
setupConditions: C57BL/6, mouse, plasma, po, 30 mg/kg
measure: concentration at 0.5 h (µM)
Field: numeric (µM). Do not append units.

Req: Reported concentration at 0.5 h for `CNCC[C@H](Oc1cccc2ccccc12)c1cccs1` : what is it?
Resp: 3.04

---

testDetails: in vivo
setupConditions: C57BL/6, mouse, plasma, po, 30 mg/kg
measure: concentration at 6 h (nM)
The reply should be a number in nM, with the unit left off.

Req: Can you share its concentration at 6 h? I mean this compound: `CNCC[C@H](Oc1cccc2ccccc12)c1cccs1`
Resp: 1280

---

testDetails: in vivo
setupConditions: C57BL/6, mouse, GL261 tumor, po, 30 mg/kg
measure: concentration at 12 h (µM)
Provide the reading as a plain figure in µM.

Req: Which concentration at 12 h value is on record for `CNCC[C@H](Oc1cccc2ccccc12)c1cccs1` ?
Resp: 10

---

testDetails: in vivo
setupConditions: C57BL/6, mouse, contralateral brain tissue without tumor, po, 30 mg/kg
measure: concentration at 0.5 h
Field note: include the unit after the figure.

Req: So what's the measured concentration at 0.5 h for this one? `CNCC[C@H](Oc1cccc2ccccc12)c1cccs1`
Resp: 36.3 µM

---

testDetails: in vivo
setupConditions: C57BL/6, mouse, plasma, po, 30 mg/kg
measure: concentration at 12 h (nM)
Respond with the bare value in nM.

Req: What does the record list as concentration at 12 h for `CNCC[C@H](Oc1cccc2ccccc12)c1cccs1` ?
Resp: 390

---

testDetails: in vivo
setupConditions: C57BL/6, mouse, plasma, po, 30 mg/kg
measure: concentration at 2 h (nM)
Your answer is read as nM, so omit the unit and give the number.

Req: Quick one: concentration at 2 h of `CNCC[C@H](Oc1cccc2ccccc12)c1cccs1` ?
Resp: 2120

---

testDetails: in vivo
setupConditions: C57BL/6, mouse, GL261 tumor, po, 30 mg/kg
measure: concentration at 6 h (µM)
// return numeric value only (unit: µM, not printed)

Req: Bench note: what concentration at 6 h did CNCC[C@H](Oc1cccc2ccccc12)c1cccs1 [Duloxetine] show?
Resp: 24.9

---

testDetails: in vivo
setupConditions: C57BL/6, mouse, contralateral brain tissue without tumor, po, 30 mg/kg
measure: concentration at 6 h (µM)
Give the value, in units of µM, as a plain number.

Req: Would you mind telling me what concentration at 6 h value was observed for `CNCC[C@H](Oc1cccc2ccccc12)c1cccs1` ?
Resp: 24.2

---

testDetails: in vivo
setupConditions: C57BL/6, mouse, GL261 tumor, po, 30 mg/kg
measure: concentration at 0.5 h (µM)
Respond numerically; units are µM and should not be typed.

Req: Find the recorded concentration at 0.5 h belonging to `CNCC[C@H](Oc1cccc2ccccc12)c1cccs1` and report it.
Resp: 48.8
